Values were extracted from patent US12365687B2.

Biological target: human GABAA α2β2γ1 receptor (Homo sapiens (Human), UniProt P47869+Q8N1C3)
Assay: Radioligand binding assay for γ1-containing GABAA subtypes, [3H]RO7239181 competition (α2β2γ1)
Conditions: Ki h-GABAA α2β2γ1, displacement of [3H]RO7239181, membranes of HEK293F cells expressing human receptors, means of two determinations
pKi: −log10 of the molar value.
Is pKi at least 8? Then Fulfilled. If not, Not fulfilled.

Sample answers from the record:
> print(dat)
                               input.smiles                               measured.on  assigned.label
1  COc1nc2n(n1)-c1ccc(Cl)c(Cl)c1C(c1c(F)cccc1F)=N[C@H]2C  human GABAA α2β2γ1 receptor (Homo sapiens (Human), UniProt P47869+Q8N1C3)   Not fulfilled
2  COC1CN(C(=O)c2cn3c(n2)[C@H](C)N=C(c2ncccc2F)c2c-3ccc(C(F)(F)F)c2Cl)C1  human GABAA α2β2γ1 receptor (Homo sapiens (Human), UniProt P47869+Q8N1C3)   Not fulfilled
3  C[C@@H]1N=C(c2ncccc2F)c2c(ccc(Cl)c2Cl)-n2nc(C(=O)N3CC4(CCOC4)C3)nc21  human GABAA α2β2γ1 receptor (Homo sapiens (Human), UniProt P47869+Q8N1C3)   Not fulfilled
4  Cc1cn2c(n1)[C@H](C)N=C(c1ncccc1F)c1c-2ccc(C(F)(F)F)c1Cl  human GABAA α2β2γ1 receptor (Homo sapiens (Human), UniProt P47869+Q8N1C3)   Not fulfilled
5  Cc1cnc2n1-c1ccc(Cl)c(Cl)c1C(c1c(F)cccc1F)=N[C@H]2C  human GABAA α2β2γ1 receptor (Homo sapiens (Human), UniProt P47869+Q8N1C3)       Fulfilled

Please examine the following record next.
Lookup: Could you please find out whether `C[C@@H]1N=C(c2c(F)cccc2F)c2c(ccc(Cl)c2Cl)-n2nc(C(=O)N3CC4(CCO4)C3)nc21` has pKi that meets 8 or exceeds it?
Found: Fulfilled

====

Target: human GABAA α5β2γ1 receptor (Homo sapiens (Human), UniProt P31644+Q8N1C3)
Assay: Radioligand binding assay for γ1-containing GABAA subtypes, [3H]RO7239181 competition (α5β2γ1)
Please note: Ki exactly at 3 nM is Condition not met. Only values below 3 nM get Condition met.

Sample answers from the record:
> print(dat)
                               input.smiles     assigned.label
1  O=C(NC1COC1)c1nc2n(n1)-c1ccc(Cl)c(Cl)c1C(c1c(F)cccc1F)=NC2      Condition met
2  C[C@@H]1N=C(c2c(F)cccc2F)c2c(ccc(Cl)c2Cl)-n2nc(C(=O)N3CC4(COC4)C3)nc21      Condition met
3  C[C@H](O)CNC(=O)c1cn2c(n1)[C@H](C)N=C(c1ncccc1F)c1c-2ccc(C(F)(F)F)c1Cl  Condition not met
4  C[C@@H]1N=C(c2c(F)cccc2F)c2c(ccc(C(F)(F)F)c2Cl)-n2nc(NC(=O)N3CCS(=O)(=O)CC3)nc21  Condition not met
5  [2H]C([2H])([2H])OC1CN(C(=O)c2nc3n(n2)-c2ccc(Cl)c(Cl)c2C(c2ncccc2F)=N[C@H]3C)C1  Condition not met

Please examine the following record next.
Lookup: Say whether its Ki is strictly beneath 3 nM. Entry: `C[C@@H]1N=C(c2c(F)cccc2F)c2c(ccc(C(F)(F)F)c2Cl)-n2nc(C(=O)NN(C)C)nc21`
Found: Condition not met
